- PROTOCOL TEXT: self-splicing fitness, log relative to wild type (ln ratio); higher = more splicing; Tetrahymena group I intron in knt gene, E. coli kanamycin selection, DiMSum; sequences stand for … in CUCUCU…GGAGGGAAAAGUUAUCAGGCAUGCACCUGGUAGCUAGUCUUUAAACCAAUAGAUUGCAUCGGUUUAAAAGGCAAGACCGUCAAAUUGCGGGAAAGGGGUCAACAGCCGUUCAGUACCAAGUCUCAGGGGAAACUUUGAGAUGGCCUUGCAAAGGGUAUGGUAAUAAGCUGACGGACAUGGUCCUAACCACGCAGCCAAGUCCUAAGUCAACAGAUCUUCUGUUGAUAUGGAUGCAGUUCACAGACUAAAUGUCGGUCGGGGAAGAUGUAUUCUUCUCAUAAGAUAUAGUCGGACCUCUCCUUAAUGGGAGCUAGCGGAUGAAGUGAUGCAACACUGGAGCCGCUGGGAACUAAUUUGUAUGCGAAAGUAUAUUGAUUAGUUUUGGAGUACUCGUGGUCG;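 also: selection with 25 µg/mL kanamycin versus none on LB agar overnight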
- CONDITION DETAILS: 37 °C

{"SEQ": "AGGUAGCAAUAUUACGUCCG", "self-splicing fitness (ln)": 0.055}
{"SEQ": "CAGAAGCAAUAUUACGACUC", "self-splicing fitness (ln)": -0.342}
{"SEQ": "AUGCAGCAAUAUUACGCCAU", "self-splicing fitness (ln)": -2.28}
{"SEQ": "GAGUAGCAAUAUUACGGCCA", "self-splicing fitness (ln)": 0.281}
{"SEQ": "CGUUAGCAAUAUUACGCACC", "self-splicing fitness (ln)": -1.79}
{"SEQ": "AAUAAGCAAUAUUACGUGCU", "self-splicing fitness (ln)": -1.29}
{"SEQ": "GUGCAGCAAUAUUACGUCCU", "self-splicing fitness (ln)": -0.541}
{"SEQ": "UAUAAGCAAUAUUACGCUGG", "self-splicing fitness (ln)": -0.93}
{"SEQ": "UGGUAGCAAUAUUACGGCUU", "self-splicing fitness (ln)": -0.0657}
{"SEQ": "UUUAAGCAAUAUUACGUGUA", "self-splicing fitness (ln)": -0.799}
{"SEQ": "CCUUAGCAAUAUUACGCGGA", "self-splicing fitness (ln)": -2.55}
{"SEQ": "UUAAAGCAAUAUUACGCAAC", "self-splicing fitness (ln)": -1.75}
{"SEQ": "AGCUAGCAAUAUUACGGAGC", "self-splicing fitness (ln)": -1.46}
{"SEQ": "CAAUAGCAAUAUUACGCUCG", "self-splicing fitness (ln)": -0.204}
{"SEQ": "CGCAAGCAAUAUUACGUAGG", "self-splicing fitness (ln)": -0.509}
{"SEQ": "CUGAAGCAAUAUUACGUUCC", "self-splicing fitness (ln)": -2.57}
{"SEQ": "UAGUAGCAAUAUUACGAAUU", "self-splicing fitness (ln)": -2.27}
{"SEQ": "GGAUAGCAAUAUUACGGACC", "self-splicing fitness (ln)": -0.154}
{"SEQ": "CACUAGCAAUAUUACGAACG", "self-splicing fitness (ln)": 0.647}
{"SEQ": "CGGGAGCAAUAUUACGUUAA", "self-splicing fitness (ln)": -1.68}
{"SEQ": "ACGGAGCAAUAUUACGACGC", "self-splicing fitness (ln)": -1.11}
{"SEQ": "CAAAAGCAAUAUUACGUGAG", "self-splicing fitness (ln)": -0.328}
{"SEQ": "CGCUAGCAAUAUUACGUCCU", "self-splicing fitness (ln)": -1.45}
{"SEQ": "CGCCAGCAAUAUUACGCGGG", "self-splicing fitness (ln)": -3.11}
{"SEQ": "AUGAAGCAAUAUUACGCCCG", "self-splicing fitness (ln)": -0.729}
{"SEQ": "CUGCAGCAAUAUUACGAGAG", "self-splicing fitness (ln)": -2.96}
{"SEQ": "GCUCAGCAAUAUUACGUAUU", "self-splicing fitness (ln)": -0.23}
{"SEQ": "UCUUAGCAAUAUUACGGUAA", "self-splicing fitness (ln)": -1.7}
